system: SF-295; assay: NCI tumour cell line growth inhibition, 48 h
The source made the active and inactive calls. Cut-off read from the data, not from the text of the source: active = GI50 up to about 1.1 µM and inactive = higher.
Give your call using only these classes: active, inactive

// known answers, use as guide
{"molecule": "CC(O)CNC1=CC(=O)C(=O)c2ccccc21 (configuration not stated)", "discrete-label": "inactive"}
{"molecule": "CSc1nc(O)c(C#N)c(-c2ccccc2)n1", "discrete-label": "inactive"}
{"molecule": "c1ccc2c(Cc3nnc4sc(SSc5nn6c(Cc7c[nH]c8ccccc78)nnc6s5)nn34)c[nH]c2c1", "discrete-label": "inactive"}
{"molecule": "COc1cc(N/N=C/C#N)cc(OC)c1OC", "discrete-label": "inactive"}
{"molecule": "COC(=O)CCSC1=CC(=O)c2nc3ccccc3c3ccnc1c23", "discrete-label": "inactive"}
{"molecule": "CN(C(=O)Cc1ccccc1)n1cnn(CC(=O)OC(C)(C)C)c1=S", "discrete-label": "inactive"}

Turning now to a further record.
Recorded test outcome, item CCNC12CCC(C1)C(C)(C)C2=O (configuration not stated)
inactive

----------
test system: COLO 205; experiment: NCI tumour cell line growth inhibition, 48 h
Calls of active or inactive are those of the source. No stated cut-off is given here; in the data, active = GI50 up to about 1.1 µM and inactive = higher.
Give your call using only these classes: active, inactive

// known answers, use as guide
{"compound": "N#CCCN(c1ccc(-c2nnc(NC(=O)CNNC(=O)CC(=O)Nc3ccccc3)s2)cc1)S(=O)(=O)c1ccccc1", "discrete-label": "inactive"}
{"compound": "CC(C)=CCN1c2ccccc2[C@@]2(CC=C(C)C)CCN(C)[C@@H]12 [(+)-DEBROMOFLUSTRAMINE B]", "discrete-label": "inactive"}
{"compound": "CCCc1ccc(/N=C\\c2cc(OC)c(OC)c(OC)c2)cc1", "discrete-label": "inactive"}
{"compound": "Brc1ccc(/C(N=N/C(=N\\Sc2ccccc2)c2ccc(Br)cc2)=N/Sc2ccccc2)cc1", "discrete-label": "inactive"}
{"compound": "CC(c1cccc2ccccc12)/[N+]([O-])=C/c1ccccc1 (configuration not stated)", "discrete-label": "inactive"}
{"compound": "O=C(c1ccccc1)n1cc(/C=C/[N+](=O)[O-])c2ccccc21", "discrete-label": "inactive"}

Recorded test outcome, item Nc1c([N+](=O)[O-])nc(Cl)c2nncn12
inactive

Recorded test outcome, item Cc1c2ccnc(-c3ccccc3)c2cc2c1[nH]c1ccccc12
active

Recorded test outcome, item C#CCN(CC#C)C(=O)C(=O)c1c[nH]c2ccc(OC)cc12
inactive

Recorded test outcome, item CCCCCCCCCCCCCC[S+](C)C
inactive

Recorded test outcome, item COC(=O)c1c(OC(C)=O)ccc2c1c1c(n2Cc2ccccc2)C(=O)c2ccccc2C1=O
inactive

----------
tested on: OVCAR-3; experiment: NCI tumour cell line growth inhibition, 48 h
Activity calls are given as the source filed them. Cut-off read from the data, not from the text of the source: active = GI50 up to about 1.1 µM and inactive = higher.
Give your call using only these classes: active, inactive

// known answers, use as guide
{"compound": "CC(=O)OCC1OC(Sc2nc(-c3ccc(C)cc3)c(C#N)c(=O)n2C2OC(COC(C)=O)C(OC(C)=O)C(OC(C)=O)C2OC(C)=O)C(OC(C)=O)C(OC(C)=O)C1OC(C)=O (centres undefined)", "discrete-label": "inactive"}
{"compound": "COc1cc([C@@H]2c3cc4c(cc3[C@@H](OC(=O)c3ccc(N)cc3)C3COC(=O)[C@@H]32)OCO4)cc(OC)c1O (some centres undefined)", "discrete-label": "inactive"}
{"compound": "COC(=O)c1c(OC(C)=O)ccc2c1c1c(n2Cc2ccccc2)C(=O)c2ccccc2C1=O", "discrete-label": "inactive"}
{"compound": "Cc1cc(S(=O)(=O)n2ccnc2Oc2ccccc2)c(SSc2cc(Cl)c(C)cc2S(=O)(=O)n2ccnc2Oc2ccccc2)cc1Cl", "discrete-label": "inactive"}
{"compound": "Cc1ccc(S(=O)(=O)N2CCCN(S(=O)(=O)c3ccc(C)cc3)CCN(S(=O)(=O)c3ccc(C)cc3)CCCSCC2)cc1", "discrete-label": "inactive"}

Recorded test outcome, item c1ccc2c(c1)CC1=C(O2)c2ccccc2OC1
inactive

Recorded test outcome, item CNC1C(O)C(OC2C(N)CC(N)C(OC3OC(CN)=CCC3N)C2O)OCC1(C)O (centres undefined)
inactive

Recorded test outcome, item CCCCc1c(O)nc(Nc2nc3ccccc3[nH]2)[nH]c1=O
inactive

Recorded test outcome, item CSc1nc(NC2OC(COC(C)=O)C(OC(C)=O)C(OC(C)=O)C2OC(C)=O)c(/N=C(\C)C(C)=O)c(=O)[nH]1 (centres undefined)
inactive

Recorded test outcome, item CCNC(=O)OCC1C2=C(C(=O)C(C)=C(N)C2=O)N2CC3C(N3C)C12OC (centres undefined)
inactive

Recorded test outcome, item COC(=O)C(=Cc1cc(OC)c(OC)c(OC)c1-c1cc2c(cc1C1(C)OCCS1)OCO2)C(=O)OC (centres undefined)
inactive

Recorded test outcome, item COC(=O)c1cc(C)n(CN(Cn2nc(C(=O)OC)cc2C)c2ccccc2)n1
inactive

Recorded test outcome, item COc1cc(OCCN(C)C)c2[nH]c(C(=O)N3CC(CCl)c4c3cc(N)c3ccccc43)cc2c1 (centres undefined)
active

Recorded test outcome, item O=C1CCC(=O)N1n1c(Cc2ccccc2)n[nH]c1=O
inactive

Recorded test outcome, item COC(=O)c1c(-c2ccccc2)c2sc3ccccc3n2c1N
inactive

Recorded test outcome, item CNC(=O)OCc1c2ccncc2c(C)c2c1[nH]c1ccccc12
active

Recorded test outcome, item Oc1ccc2ccccc2c1/C=N/Cc1c(O)ccc2ccccc12
inactive

Recorded test outcome, item Nc1nc(SCCC/C=C/I)nc2c1ncn2C1OC(CO)C(O)C1O (centres undefined)
inactive

Recorded test outcome, item COc1ccc(C(=O)C(Br)C(Br)C(=O)O)cc1 (centres undefined)
inactive

----------
test system: UO-31; assay: NCI tumour cell line growth inhibition, 48 h
Active and inactive are the calls of the source. No stated cut-off is given here; in the data, active = GI50 up to about 1.1 µM and inactive = higher.
Give your call using only these classes: true (1) = active, false (0) = inactive

// known answers, use as guide
{"compound": "COc1cc([C@@H]2c3cc4c(cc3[C@@H](OC(=O)c3ccc(N)cc3)C3COC(=O)[C@@H]32)OCO4)cc(OC)c1O (some centres not stated)", "discrete-label": "false (0)"}
{"compound": "CCSC(=O)C1(C)OC2CCCCC2C1=O (configuration not stated)", "discrete-label": "false (0)"}
{"compound": "O=C1CSC(c2cccc(Cl)c2)N1c1ccc(-c2ccc(-n3c(-c4ccccc4)nc4ccccc4c3=O)cc2)cc1 (configuration not stated)", "discrete-label": "false (0)"}
{"compound": "Cc1nc(-n2nc(-c3ccccc3)cc2-c2ccccc2)sc1C(=O)/C=C/c1ccc(/C=C/C(=O)c2sc(-n3nc(-c4ccccc4)cc3-c3ccccc3)nc2C)cc1", "discrete-label": "false (0)"}
{"compound": "O=C1CCC2(c3ccc(F)cc3)Nc3ncncc3N12 (configuration not stated)", "discrete-label": "false (0)"}
{"compound": "CNC(=O)OCc1c2ccncc2c(C)c2c1[nH]c1ccccc12", "discrete-label": "true (1)"}

Recorded test outcome, item O=C(O)C(O)C(O)C(O)C(O)CO.[Ba+2] (configuration not stated)
false (0)

Recorded test outcome, item Nc1c([N+](=O)[O-])nc(Cl)c2nncn12
false (0)

----------
test system: EKVX; assay: NCI tumour cell line growth inhibition, 48 h
Calls of active or inactive are those of the source. Cut-off read from the data, not from the text of the source: active = GI50 up to about 1.1 µM and inactive = higher.
measure-name: GI50

Study these solved cases before continuing.
{"compound": "CN(C)CCCNc1ccc2nnn3c4ccc(O)cc4c(=O)c1c23", "GI50": "9.98 µM (inactive)"}
{"compound": "COc1ccc(C23C(=O)c4ccccc4N2O[C@H]2C(=O)N(c4ccccc4)C(=O)[C@H]23)cc1 (stereo partly specified)", "GI50": "> 100 µM (inactive)"}
{"compound": "N#C/N=C(/N)NCN/C(N)=N\\C#N", "GI50": "> 100 µM (inactive)"}
{"compound": "CC(CN1NC12CCCC2)N1NC12CCCC2 (stereo unspecified)", "GI50": "> 100 µM (inactive)"}
{"compound": "CN(C)S(=O)(=O)c1ccc2c(c1)/C(=C1/Nc3ccccc3C1=O)C(=O)N2", "GI50": "24 µM (inactive)"}

Bench note: what GI50 did Cc1cc(S(=O)(=O)O)c(NC(=O)C(=O)Cc2cc(=O)oc3cc(O)ccc23)cc1Cl show?
> 100 µM (inactive)

Bench note: what GI50 did CCCCCCCCNC(=O)SCCCC show?
29.4 µM (inactive)

Bench note: what GI50 did CCCCN1/C(=N/Nc2n[nH]c(=O)c3ccccc23)SCC1c1ccc(Cl)cc1 (stereo unspecified) show?
4.27 µM (inactive)

Bench note: what GI50 did CCOP(=O)(C/C(=N/NC(C)(C)C)C(=O)Nc1nc2ccc(C)cc2s1)OCC show?
> 100 µM (inactive)

Bench note: what GI50 did O=C(NNc1nc(-c2ccccc2)cs1)C(F)(F)F show?
98.9 µM (inactive)

Bench note: what GI50 did CN(C)CCCCN1CCc2c(n(C)c3ccccc23)C1=O show?
36 µM (inactive)
